Origin of measurements: paper PMC12040169

- assayComment: in vitro
- conditionSet: human, hela cells, % viability
// assign Fulfilled if viability at 28.5 h, 10 µM falls strictly below 90%, else Not fulfilled (ties count as Not fulfilled)

1) CCCCSc1nc(N)cc(N2CCCC(C(=O)N3CCOCC3)C2)n1 (stereo not shown) [CBK307210] = Fulfilled
2) COc1cc(CN2CCC(N3CCCCC3)CC2)c([N+](=O)[O-])cc1OC [CBK261858] = Not fulfilled

Is it true that viability at 28.5 h, 10 µM reported for Cc1nn(CC(=O)NC(C)(C)C)c(=O)c2cc3sccc3n12 [CBK284021] is less than 90%? Fulfilled

Is viability at 28.5 h, 10 µM of Fc1ccccc1-c1cn2ccnc2c(N2CCOCC2)n1 [CBK036584] strictly below 90%? Not fulfilled
